TEST_DETAILS: Competitive inhibition of Agrobacterium sp. beta-glucosidase using 4-nitrophenyl beta-D-galactopyranoside as substrate pre-incubated for up to 5 mins before substrate addition
pKi: −log10 of the molar value.
ENDPOINT: pKi

# count of solved cases: 4
- ITEM_SMILES: "CN(C)c1cccc2c(S(=O)(=O)NCCCCCCN(C)[C@H]3[C@H](O)[C@@H](O)[C@@H](O)[C@H]3CO)cccc12"
  pKi: 8.55
- ITEM_SMILES: "N#CCCCCCN[C@H]1[C@H](O)[C@@H](O)[C@@H](O)[C@H]1CO"
  pKi: 8.22
- ITEM_SMILES: "NCCCCCCN[C@H]1[C@H](O)[C@@H](O)[C@@H](O)[C@H]1CO"
  pKi: 7.02
- ITEM_SMILES: "OC[C@@H]1[C@H](O)[C@H](O)[C@@H](O)[C@@H]1N1CCCC1"
  pKi: 5.74

A: N#CCCCN[C@H]1[C@H](O)[C@@H](O)[C@@H](O)[C@H]1CO
B: CN(C)c1cccc2c(S(=O)(=O)NCCCCCCN[C@H]3[C@H](O)[C@@H](O)[C@@H](O)[C@H]3CO)cccc12
# min-compare on pKi between A and B Could you answer with the label of the item you picked?
A
(A: 8.62, B: 8.92)

###

EXPERIMENTAL_TARGET: Lysosomal acid glucosylceramidase (Homo sapiens, UniProt P04062)
Sequence (P04062 whole entry): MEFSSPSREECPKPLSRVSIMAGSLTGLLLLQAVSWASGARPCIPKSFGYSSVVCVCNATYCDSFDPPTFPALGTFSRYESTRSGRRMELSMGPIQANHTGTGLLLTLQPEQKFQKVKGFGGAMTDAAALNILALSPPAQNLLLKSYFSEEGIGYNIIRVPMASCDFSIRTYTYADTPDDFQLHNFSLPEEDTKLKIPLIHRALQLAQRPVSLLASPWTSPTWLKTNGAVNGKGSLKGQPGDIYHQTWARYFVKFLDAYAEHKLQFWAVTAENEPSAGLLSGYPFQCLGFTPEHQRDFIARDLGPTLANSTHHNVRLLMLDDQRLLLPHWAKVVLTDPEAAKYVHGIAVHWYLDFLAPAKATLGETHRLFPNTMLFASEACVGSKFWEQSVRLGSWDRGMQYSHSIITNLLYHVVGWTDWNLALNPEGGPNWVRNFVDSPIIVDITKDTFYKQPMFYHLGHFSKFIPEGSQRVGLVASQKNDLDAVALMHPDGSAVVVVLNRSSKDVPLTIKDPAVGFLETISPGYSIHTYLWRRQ
TEST_DETAILS: Competitive inhibition of recombinant beta-glucocerebrosidase (unknown origin) using 4-nitrophenyl beta-D-[…] as substrate pre-incubated for up to 5 mins before substrate addition
pKi: −log10 of the molar value.
ENDPOINT: pKi

- ITEM_SMILES: "N#CCCCCCN[C@H]1[C@H](O)[C@@H](O)[C@@H](O)[C@H]1CO"
  EXPERIMENTAL_TARGET: "Lysosomal acid glucosylceramidase (Homo sapiens, UniProt P04062)"
  ENDPOINT: "pKi"
  REPORTED_RESULT: 4.97
- ITEM_SMILES: "CN(C)c1cccc2c(S(=O)(=O)NCCCCCCN[C@H]3[C@H](O)[C@@H](O)[C@@H](O)[C@H]3CO)cccc12"
  EXPERIMENTAL_TARGET: "Lysosomal acid glucosylceramidase (Homo sapiens, UniProt P04062)"
  ENDPOINT: "pKi"
  REPORTED_RESULT: 7.72
- ITEM_SMILES: "CCCCCCCCN[C@@H]1C=C(CO)[C@H](O)[C@H](O)[C@H]1O"
  EXPERIMENTAL_TARGET: "Lysosomal acid glucosylceramidase (Homo sapiens, UniProt P04062)"
  ENDPOINT: "pKi"
  REPORTED_RESULT: 4.08
- ITEM_SMILES: "N#CCCCN[C@H]1[C@H](O)[C@@H](O)[C@@H](O)[C@H]1CO"
  EXPERIMENTAL_TARGET: "Lysosomal acid glucosylceramidase (Homo sapiens, UniProt P04062)"
  ENDPOINT: "pKi"
  REPORTED_RESULT: 4.99
- ITEM_SMILES: "NCCCCCCN[C@H]1[C@H](O)[C@@H](O)[C@@H](O)[C@H]1CO"
  EXPERIMENTAL_TARGET: "Lysosomal acid glucosylceramidase (Homo sapiens, UniProt P04062)"
  ENDPOINT: "pKi"
  REPORTED_RESULT: 4.27

P: CN(C)c1cccc2c(S(=O)(=O)NCCCCCCN(C)[C@H]3[C@H](O)[C@@H](O)[C@@H](O)[C@H]3CO)cccc12
Q: OC[C@@H]1[C@H](O)[C@H](O)[C@@H](O)[C@@H]1N1CCCC1
P or Q : whose pKi is greater? Could you answer with the label of the item you picked?
P
(P: 9.00, Q: 3.91)

Hello, the source for this data is ChEMBL document CHEMBL4033736, in case you need it.
